tested on: HOP-62 NSCLC; experiment: NCI tumour cell line growth inhibition, 48 h
Listed compounds paired with reported TGI
measured parameter: TGI

compound | measured parameter | observed
Cn1c2c(c3ccccc31)CCN(CCCCN1CCN(c3cccc(Cl)c3)CC1)C2=O | TGI | 30.7 µM
CCC1CCc2nc3sc(C(=O)Nc4ccccc4C)c(N)c3cc2C1 (stereo unspecified) | TGI | > 100 µM
Cc1c2c(n(CCN(C)C)c1C)NN=C(C#N)S2(=O)=O | TGI | > 100 µM
CCc1nc(Cl)nc(Cl)c1Cl | TGI | 21.2 µM
O=C(c1ccc(Br)cc1)n1c2ccc(Br)cc2c2nc3ccccc3nc21 | TGI | > 100 µM
CSc1ccc(/C=C/c2ccnc3ccccc23)cc1 | TGI | 34.8 µM
Nc1nc(Cl)c2nnn(CC3CCC(CO)C3)c2n1 (stereo unspecified) | TGI | > 100 µM
NC(=O)/C=C/NC(=O)/C=N\O | TGI | > 100 µM
O=C1CC(=O)N(CCc2ccccc2)S(=O)(=O)N1CCc1ccccc1 | TGI | > 100 µM
Cc1ccc(/C=C/C(=O)c2cc(CN(C)C)c(O)c(CN(C)C)c2)cc1 | TGI | 37.5 µM
C[C@H]1C(Oc2ccc(O)cc2)OC2OC3(C)CCC4[C@H](C)CCC1C24OO3 (stereo partly specified) | TGI | 51.5 µM
C/C(Cc1ccc(Cl)cc1)=C(/c1ccc(Cl)cc1)c1ccc(OCCN(C)C)cc1 | TGI | 11.8 µM
COc1cccc(CC2Cc3ccccc3CC(=O)N2)c1 (stereo unspecified) | TGI | 72.5 µM
C=CC(C)CCC(C/C=C(\C)CCC=C(C)C)C(=C)CCCC(C)C (stereo unspecified) | TGI | > 100 µM
COc1ccc(C(=O)c2cc3c(N)c(C(=O)Nc4cccc(Cl)c4C)sc3nc2C)cc1 | TGI | > 25 µM
COc1cc(/C=C/c2cc(/C=C/c3ccc(O)c(OC)c3)oc(=O)c2)ccc1O | TGI | 27.2 µM

----------
tested on: UO-31 renal; assay: NCI tumour cell line growth inhibition, 48 h

compound | assayed system | GI50
CN(CCCl)c1ccc(/C=C/C2=[N+](C)c3ccccc3C2(C)C)cc1 | UO-31 renal | 4.39 µM
CCCCCCCCCCCCOC1C(CNC(=O)C2OC3OC(C)(C)OC3C2NC(=O)CN2CCCCCC2)OC2OC(C)(C)OC21 (stereo not given) | UO-31 renal | 6.22 µM
Cc1ccc(S(=O)(=O)Cc2nc(-c3ccc(C(=O)NCc4cccnc4)cc3)oc2C)cc1 | UO-31 renal | 23.7 µM
CC(=O)[O][Hg][c]1ccccc1 | UO-31 renal | 1.23 µM
O=[N+]([O-])c1ccc2ncccc2c1Cl | UO-31 renal | 5.02 µM

----------
test system: MCF7 breast; experiment: NCI tumour cell line growth inhibition, 48 h; in the data active = GI50 below about 0.43 µM; inactive = the rest
Possible outcomes: class 1 (active), class 0 (inactive)

smiles input | category
CCOC(=O)Nc1ccc(-c2nc(-c3cccc(OC)c3)c(-c3ccnc(Br)c3)[nH]2)cc1 | class 0
CCCCn1sc(=O)n(Cc2ccc(CNC(=O)OCc3ccc4c(Br)cc(Br)c(O)c4n3)cc2)c1=O | class 1
COc1ccc(-c2ccc(/C=N/n3c(C)nn(CN4CCN(C)CC4)c3=S)o2)c([N+](=O)[O-])c1 | class 0

----------
tested on: NCI-H226 lung; assay: NCI tumour cell line growth inhibition, 48 h; in the data active = GI50 below about 0.43 µM; inactive = the rest
Possible outcomes: class 1 = active, class 0 = inactive

molecule | category
CC(=O)[O][Hg][c]1ccccc1 | class 0
COc1cnc2c(c1)C(=O)c1c-2n(CCCN2CCCC2)c(=O)c2cc(F)ccc12 | class 1
COc1ccc(C(=O)c2cc3c(N)c(C(=O)Nc4cccc(Cl)c4C)sc3nc2C)cc1 | class 1
O=C1c2c(O)cc(O)cc2OC(c2ccc(O)cc2O)C1O (stereo unspecified) | class 0
COc1cc2nc3cc([N+](=O)[O-])ccc3c(NCCCNCC(C)(C)O)c2cc1OC | class 0
CCCSC1=NC2C(N(CC)C(=O)N2CC)N1/N=C/C=C/c1ccccc1[N+](=O)[O-] (stereo unspecified) | class 0

----------
tested on: M14 melanoma; assay: NCI tumour cell line growth inhibition, 48 h
Listed compounds paired with reported TGI

smiles input | unit tag | value prefix | TGI
CN(C)c1ccc(/C=N\N2C(=O)c3ccccc3C2=O)cc1 | µM | > | 100
Cc1ccc2[nH]c3c(ncc4[nH]c5ccccc5c43)c2c1 | µM | = | 35.8
CCCCCC/C=C\CCCCCCCCCC1=CC(=O)C=C(OC)C1=O | µM | = | 16.2
Cn1c2c(c3ccccc31)CCN(CCCCN1CCN(c3cccc(Cl)c3)CC1)C2=O | µM | = | 10.7

----------
system: MDA-MB-435
Possible outcomes: Yes (active), No (inactive)

smiles input | assayed system | category
C/C(=C\c1ccc(Cl)c(Cl)c1)[N+](=O)[O-] | MDA-MB-435 | No
N#Cc1ccc(C(c2ccc(C#N)cc2)n2cncn2)cc1 | MDA-MB-435 | No
O=C1C(Cl)=C(Nc2cccc(O)c2)C(=O)N1c1ccccc1Cl | MDA-MB-435 | No
C/C(Cc1ccc(Cl)cc1)=C(/c1ccc(Cl)cc1)c1ccc(OCCN(C)C)cc1 | MDA-MB-435 | No
O=[N+]([O-])c1ccc2ncccc2c1Cl | MDA-MB-435 | No
CCOC(=O)Nc1ccc(-c2nc(-c3cccc(OC)c3)c(-c3ccnc(Br)c3)[nH]2)cc1 | MDA-MB-435 | No
Cc1ccc(S(=O)(=O)Cc2nc(-c3ccc(C(=O)NCc4cccnc4)cc3)oc2C)cc1 | MDA-MB-435 | Yes
CCCCn1sc(=O)n(Cc2ccc(CNC(=O)OCc3ccc4c(Br)cc(Br)c(O)c4n3)cc2)c1=O | MDA-MB-435 | Yes
COc1ccc(-c2csc(-c3cc(Cl)cc(Cl)c3Cl)n2)cc1 | MDA-MB-435 | No
O=C1CCc2c(sc3[nH]c(=S)n(Cc4ccccc4)c(=O)c23)C1 | MDA-MB-435 | No
Cc1cc(C)nc(SC2=C(Nc3cccc(Cl)c3C)C(=O)N(Cc3ccccc3)C2=O)n1 | MDA-MB-435 | No
COc1cc2cc(c1Cl)N(C)C(=O)C[C@H](OC(=O)[C@H](C)N(C)C(C)=O)[C@]1(C)O[C@H]1[C@H](C)[C@@H]1C[C@@](O)(NC(=O)O1)[C@H](OC)C=C/C=C(\C)C2 | MDA-MB-435 | Yes

----------
Listed molecules paired with reported TGI
test system: OVCAR-3 ovarian; experiment: NCI tumour cell line growth inhibition, 48 h
measured parameter: TGI

molecule | observed
C=C1C(=O)O[C@H]2[C@H]1CC(=O)/C(C)=C/CC[C@@]1(C)O[C@@H]21 | 0.6 µM
O=C(OCc1ccc2c(Cl)cc(Cl)c(O)c2n1)c1cc2ccccc2[nH]1 | 0.398 µM
NNc1[nH]c(=S)[nH]c1C(N)=O | > 100 µM
c1ccc(-c2nnc(-c3nsc4ccccc34)o2)cc1 | > 100 µM
Cc1c(C)c(S(=O)(=O)N(CCCN)OCCCN)c(C)c2c1OC(C)(C)C2 | > 100 µM
COc1cc(/C=C/c2cc(/C=C/c3ccc(O)c(OC)c3)oc(=O)c2)ccc1O | 5.68 µM
O=C(O)C12CCCC(CCC1)C2 | > 100 µM
COC(OC)[C@@H](C)[C@H](O)[C@](C)(O)C1OC(C)(C)OC(C(C)C=C(C)C)C1C (some centres undefined) | > 100 µM
CCOC(=O)c1ccc(-n2c(SCC)nc3sc(C)c(C)c3c2=O)cc1 | > 100 µM
COc1ccc2c(c1)CCC1=CC3(CCC12C)SCCS3 (centres undefined) | 7.71 µM
C=CCOC(=O)[C@@H]1C[C@@H](OC(C)(C)C)CN1C(=O)[C@@H]1[C@H]2OC(C)(C)O[C@H]2CN1C(=O)OCC1c2ccccc2-c2ccccc21 | 35.2 µM
C=CC[C@@H]1C(=O)[C@@]2(O[Si](C(C)C)(C(C)C)C(C)C)CC[C@@H]1C[C@H]2NC(=O)OCC(Cl)(Cl)Cl | > 100 µM
NC(=O)/C=C/NC(=O)/C=N\O | > 100 µM
c1ccc(COCC2OC3c4ccccc4COC3C2OCc2ccccc2)cc1 (centres undefined) | > 100 µM

----------
tested on: DMS 114 small cell lung; assay: NCI tumour cell line growth inhibition, 48 h
Listed compounds paired with reported TGI
measured parameter: TGI (µM)

compound | unit tag | value prefix | observed
COc1cc2c(cc1OC)C(=O)C(C1=C(SC(=N)N)C(=O)c3cc(OC)c(OC)cc31)C2 (stereo not given) | µM | > | 100
COC(OC)[C@@H](C)[C@H](O)[C@](C)(O)C1OC(C)(C)OC(C(C)C=C(C)C)C1C (stereo not given in full) | µM | > | 100
COc1cc(-c2cc(=O)c3cc(C)c(C)c(C(=O)O)c3o2)cc(OC)c1OC | µM | > | 100
CCC[CH2][Sn]([CH2]CCC)([O]C(=O)C1CCC(=O)N1)[O]C(=O)C1CCC(=O)N1 (stereo not given) | µM | = | 0.367
Cn1c2c(c3ccccc31)CCN(CCCCN1CCN(c3cccc(Cl)c3)CC1)C2=O | µM | = | 10.7
